assay: Phase 1 single-dose plasma pharmacokinetics in subjects with normal hepatic function, mild or moderate hepatic impairment; format: in vivo, human; details: human, plasma, po, 200 mg, Mild Hepatic Impairment; 200 mg single oral dose; read-out: t1/2, Median (converted)
measurementType: half-life (h)
Give bare numbers, in h.

Ask | Any idea what its half-life is? The compound is N#CC1(c2ccc(NC(=O)c3cccnc3NCc3ccncc3)cc2)CCCC1 [Rivoceranib]
Reply | 12.3

====

test: Phase 1 single-dose plasma pharmacokinetics in subjects with normal hepatic function, mild or moderate hepatic impairment; assay type: in vivo, human; settings: human, plasma, po, 200 mg, Normal Hepatic Function; 200 mg single oral dose; read-out: tmax, Geometric Mean
measurementType: Tmax (h)
Numbers only, in h.

Ask | Any idea what its Tmax is? The compound is N#CC1(c2ccc(NC(=O)c3cccnc3NCc3ccncc3)cc2)CCCC1 [Rivoceranib]
Reply | 2.2

====

experiment: Phase 1 study: unbound plasma concentration and fraction unbound (protein binding); format: in vivo, human; conditions: human, plasma, po, 200 mg, Normal Hepatic Function; 4 h; 200 mg single oral dose; read-out: Fraction Unbound, Geometric Mean
measurementType: fraction unbound at 4 h

Ask | Any idea what its fraction unbound at 4 h is? The molecule is N#CC1(c2ccc(NC(=O)c3cccnc3NCc3ccncc3)cc2)CCCC1 [Rivoceranib]
Reply | 0.0243

====

assay: Phase 1 single-dose plasma pharmacokinetics in subjects with normal hepatic function, mild or moderate hepatic impairment; assay type: in vivo, human; conditions: human, plasma, po, 200 mg, Moderate Hepatic Impairment; 200 mg single oral dose; read-out: Cmax, Geometric Mean
measurementType: Cmax (ng/mL)
One number for each entry, in ng/mL.

Ask | Any idea what its Cmax is? The compound is N#CC1(c2ccc(NC(=O)c3cccnc3NCc3ccncc3)cc2)CCCC1 [Rivoceranib]
Reply | 210

====

assay: Phase 1 single-dose plasma pharmacokinetics in subjects with normal hepatic function, mild or moderate hepatic impairment; format: in vivo, human; conditions: human, plasma, po, 200 mg, Normal Hepatic Function; 48 h; 200 mg single oral dose; read-out: Plasma concentration, Geometric Mean
measurementType: concentration at 48 h (ng/mL)
Answers are plain numbers, in ng/mL.

Ask | Any idea what its concentration at 48 h is? The compound is N#CC1(c2ccc(NC(=O)c3cccnc3NCc3ccncc3)cc2)CCCC1 [Rivoceranib]
Reply | 14.8

====

experiment: Phase 1 single-dose plasma pharmacokinetics in subjects with normal hepatic function, mild or moderate hepatic impairment; type: in vivo, human; settings: human, plasma, po, 200 mg, Mild Hepatic Impairment; 48 h; 200 mg single oral dose; read-out: Plasma concentration, Arithmetic Mean
measurementType: concentration at 48 h (ng/mL)
Answers are plain numbers, in ng/mL.

Ask | Any idea what its concentration at 48 h is? The compound is N#CC1(c2ccc(NC(=O)c3cccnc3NCc3ccncc3)cc2)CCCC1
Reply | 8.5

====

assay: Phase 1 study: unbound plasma concentration and fraction unbound (protein binding); format: in vivo, human; conditions: human, plasma, po, 200 mg, Moderate Hepatic Impairment; 24 h; 200 mg single oral dose; read-out: Fraction Unbound, Median
measurementType: fraction unbound at 24 h
Give bare numbers.

Ask | Any idea what its fraction unbound at 24 h is? The compound is N#CC1(c2ccc(NC(=O)c3cccnc3NCc3ccncc3)cc2)CCCC1 [Rivoceranib]
Reply | 0.021
